test system: U251 CNS; experiment: NCI-60 one-dose screen, 48 h; details: 10 µM unless noted
About 83,000 compounds went through this panel and 20% of them were active in at least one assay; those are over-represented in the sample as a whole. Calls of active or inactive are those of the source. How the source made its calls: active means growth percent below 10; inactive means the rest.
Please reply with one of these outcomes: active, inactive

What was the test verdict on CCOC(=O)c1c(C)c2c(n1Cc1ccccc1)CSCC2=O ?
inactive

Hey, what did the test say about Cc1ccc(C)c2c(C)c(C(=O)Nc3cccc(-n4cccn4)c3)oc12 ?
inactive

What outcome does the record of this test show for c1ccc2c(c1)CCCc1nnc3nc4ccccc4n3c1-2 ?
inactive

Which outcome was assigned to Nc1nc(NC(=O)Nc2ccc(C(=O)O)cc2)nn1-c1ccc(S(N)(=O)=O)cc1 in this test?
inactive

Kindly provide the recorded test outcome for the following molecule: N=c1c(S(=O)(=O)c2ccccc2)cc2c(=O)n3ccccc3nc2n1CC1CCCO1 (stereo not given)
inactive

For C/C(=N\O)[C@@H]1CC[C@]2(CO)CC[C@]3(C)[C@H](CC[C@@H]4[C@@]5(C)CCCNC(C)(C)[C@@H]5CC[C@]43C)[C@@H]12 , which call appears in the assay record?
inactive

What did this assay record as the result for CCCn1nc(C(=O)N(C)Cc2ccccc2)c2c1CCC(N1CCc3ccccc31)C2 (stereo not given) ?
inactive

Could you kindly confirm the outcome this assay logged for COc1cc(Cl)c(C)cc1NC(=O)c1cc2ccccc2cc1O ?
active

Call for entry Nc1nc(N)c(N=Nc2ccccc2)c(-c2ccccc2)n1 :
inactive

Which outcome was entered for the molecule COc1ccc(Cn2cc3c(c2-c2ccccc2)CCc2cnoc2-3)cc1 in this test?
inactive

For CCCCNc1cc(-c2cn[nH]c2-c2cc(C)cc(OC)c2)nc(-c2cccnc2)n1 , which call appears in the assay record?
inactive

Given O=C1c2ccccc2C(=O)C1c1ccc(Br)cc1 , state the outcome it received in this test.
inactive

Give the logged outcome of this assay for the following molecule: Cc1ccc(/C=C/C(=O)c2ccc(-n3cc(CN4CCN(c5cc6c(cc5F)c(=O)c(C(=O)O)cn6C5CC5)CC4)nn3)cc2)cc1
inactive

How was CC1=C(C(=O)Nc2nc(-c3ccc(Cl)cc3)cs2)[C@H](c2ccc(O)cc2)NC(=O)N1 classified in this test?
inactive

What did the test return for CN1CCN(Cc2ccc(NC(=O)c3cncc(C#Cc4cnc(N)c5ncccc45)c3)cc2C(F)(F)F)CC1 ?
active

Hi team, can someone confirm the assay call for CC1=C2[C@@H](CC1)[C@]1(C)O[C@@](C3CCCCC3)(C[C@H]1OC(=O)CO)[C@H]2OC(=O)/C=C/c1ccccc1 ?
inactive

Record request — test call for CCCCNC(=O)c1cc([N+](=O)[O-])cc(C2CCCCC2)c1O
inactive

Each molecule tested received a call. Report the one for C=C(CNCCO)[C@@H]1CC[C@]2(CO)CC[C@]3(C)[C@H](CC[C@@H]4[C@@]5(C)CCC(N)C(C)(C)[C@@H]5CC[C@]43C)[C@@H]12 (stereo not given in full) .
active

Returns: the outcome recorded for COc1ccc(/C=C/C(c2cc(OC)c(OC)c(OC)c2)n2ccnc2)cc1O (stereo not given) in this assay.
inactive

Per the records of this test, what outcome belongs to CC1CCN(C(=O)CCCl)c2ccccc21 (stereo not given) ?
inactive

Check the results log: what was the call for CCCCNC(=O)Oc1ccc(/C(=C(/C)Cc2ccc(OC)cc2)c2ccc(OCCN3CCCCC3)cc2)cc1 ?
inactive

Each molecule tested received a call. Report the one for N=C(N)c1ccc(-c2ccc(-c3ccccc3)s2)cc1 .
active

GET /call?item= S=c1[nH]c(=S)c2c(-c3ccccc3)c(-c3ccccc3)oc2[nH]1 returns the recorded outcome of this test.
inactive

Write down the call the test reported for this molecule. Item: C=C1C(=O)O[C@H]2[C@H]1CC/C(COC(=O)/C=C/C(=O)OC/C1=C/CC[C@@]3(C)O[C@H]3[C@H]3OC(=O)C(=C)[C@@H]3CC1)=C\CC[C@@]1(C)O[C@@H]21
inactive

Call for entry CCC1S/C(=N\N=C(\C)c2cc3cc(Cl)ccc3o2)N(c2ccccc2)C1=O (stereo not given) :
inactive

Status in this test for Cc1ncc(C(=O)Nc2ccc(CN3CCN(C)CC3)c(C(F)(F)F)c2)cc1C#Cc1cnc(N)c2ncccc12 ?
inactive

Recorded test call requested for COC(=O)C(Cc1ccccc1)NC(=O)c1ccc(NC(=O)c2[nH]c(C)c(Cl)c2Cl)c(OC(C)C)c1 (stereo not given)
inactive

Identify the outcome logged in this assay for the molecule shown: CC(=O)ON1CCCC(P(=O)(OCCSC(=O)C(C)(C)C)OCCSC(=O)C(C)(C)C)C1=O (stereo not given)
active

Lab log entry: CC(=O)c1ccc(Nc2nccc(-c3ccc4ccccc4c3)n2)cc1 — outcome as called in the assay?
inactive

Record lookup: outcome of this test for CCOC(=O)/C=C1\S/C(=N\Nc2cc(=O)[nH]c3ccccc23)N(c2ccccc2)C1=O ?
inactive

----------
tested on: HOP-92 NSCLC; assay: NCI-60 one-dose screen, 48 h (100 = growth as untreated, 0 = no growth, -100 = all killed); settings: 10 µM unless noted
About 83,000 compounds went through this panel and 20% of them were active in at least one assay; those are over-represented in the sample as a whole.
Entries whose growth is below 50% take condition met; entries at or above 50% take condition not met.

Please indicate whether the reported growth of CC(=O)c1sc2sc(C(C)=O)c(C)c2c1C is strictly below 50%.
condition not met

Say whether its growth is strictly beneath 50%. Entry: CN(C)CCN1C(=O)c2cccc3c(/C=C/CN4C(=O)c5cccc6cccc(c56)C4=O)ccc(c23)C1=O
condition not met

Dear reviewer, please state whether Cc1nc2c(=O)nc3s/c(=C\c4ccco4)c(=O)n3c2nc1C has growth strictly beneath 50%.
condition not met

State whether 50% exceeds growth recorded for CCOC(=O)/C=C1\S/C(=N\Nc2cc(=O)[nH]c3ccccc23)N(c2ccccc2)C1=O .
condition not met

Determine if CN1C(=O)/C(=C2\SC(=Nc3ccccc3)N(Nc3ccccc3)C2=O)c2ccccc21 shows growth strictly lower than 50%.
condition not met

Regarding CCCCCCCCCCCCCOC(=O)c1c(C)[nH]c(/C=C2\N=C(c3ccc[nH]3)C=C2OC)c1C , kindly confirm whether its growth is beneath 50%.
condition met

Say whether its growth is strictly beneath 50%. Entry: COc1ccc(/C(C)=C(/c2ccc(OCCCN(C)C)cc2)c2ccc(OC(=O)c3ccccc3)cc2)cc1
condition not met

Please state whether growth is below 50% for CN(C)CCCC1(c2ccc(F)cc2)OCc2cc(-c3ccc4cc[nH]c4c3)ccc21 (stereo unspecified)
condition met

Criterion: growth strictly below 50%. Is it met by CC1(C)NCCC[C@]2(C)[C@H]3CC[C@H]4[C@H]5[C@H](C(=O)/C=C/c6cccnc6)CCC[C@]5(CO)CC[C@@]4(C)[C@]3(C)CC[C@@H]12 ?
condition met

For this compound, is growth lower than 50%? COc1ccc(C2CC(c3cc(OC)c(OC)c(OC)c3)=NO2)cc1OCCCCOc1cc2c(cc1OC)C(=O)N1CCC[C@H]1C=N2 (stereo partly specified)
condition met

Find out if reported growth for Cc1ccc2nc(NC(=O)CSc3nc(-c4ccccc4)c(C#N)c4nnnn34)sc2c1 is less than 50%
condition not met

----------
system: ACHN renal; experiment: NCI-60 one-dose screen, 48 h (100 = growth as untreated, 0 = no growth, -100 = all killed); conditions: 10 µM unless noted
About 83,000 compounds went through this panel and 20% of them were active in at least one assay; those are over-represented in the sample as a whole. Active and inactive are the calls of the source. Rule for the calls: active = growth percent below 10; inactive = the rest.
measurementLabel: growth

May I ask what growth has been recorded for CCOC(=O)CC1CSC(Nc2ccccc2)=N1 (stereo not drawn) ?
105% (inactive)

For COc1ccc(-c2nc(/C=C3\C(=O)N(C)c4ccccc43)c3ccccn23)cc1 , what is its reported growth?
64.5% (inactive)

Endpoint output: growth of c1ccc(CCNc2c3ccccc3nc3ccccc23)cc1 . Value?
21.6% (inactive)

// growth lookup, key: COc1cccc(C(=O)NNc2nc(Cl)nc(Cl)n2)c1
101% (inactive)

Returns the measured growth for the input molecule. Input: Cc1cccc(Oc2ccc(Nc3ncnc4ccc(NC(=O)CN5CCN(C)CC5)cc34)cc2Cl)c1
-7.41% (active)

Could you tell me which growth is on file for NC1(CO)COC(c2ccccc2)OC1 (stereo not drawn) ?
96.3% (inactive)

Recorded growth of CN(C)CCCNC(=O)c1cncnc1Nc1ccc(OCc2cccc(F)c2)c(Cl)c1 , please.
-36.8% (active)

Bench note: what growth did C=CCN1C(=O)c2cccc3c(N4CCOCC4)ccc(c23)C1=O show?
18.6% (inactive)

Entry under review: CN1CCN(c2ccc3nc4c(nc3c2C(F)(F)F)C(=O)c2ncccc2C4=O)CC1 . Reported growth?
-44.2% (active)

Look up growth: CNC1=C([N+](=O)[O-])C(c2ccc(OC)cc2)C(C#N)=C(c2cccs2)O1 (stereo not drawn)
109% (inactive)

# query: growth of entry COc1ccc(C2=CC(c3cc(OC)c(OC)c(OC)c3)n3ncnc3N2)cc1 (stereo not drawn)
32.4% (inactive)

Field request: growth | item: Cc1ccc2c(-c3nnc(N)s3)cc(=O)oc2c1C
103% (inactive)

Which measured growth value corresponds to C=CC(=O)Nc1ccc(Nc2nccc(-c3ccc(N4CCCC4)c(C#N)c3)n2)cc1 ?
19.6% (inactive)

Fill in: growth of O=C(NC(Cc1nnc2n(Cc3ccccc3)c(=O)c3c4c(sc3n12)CCCC4)c1ccccc1)c1ccccc1 (stereo not drawn) is ___
127% (inactive)

Could you share which growth value was measured for C=C1CC[C@@H]2C(C)(C)[C@@H](O)CC[C@@]2(C)[C@@H]1COc1ccc2ccc(=O)oc2c1 ?
80.1% (inactive)

Using the record for COc1cc(Cl)c(C)cc1NC(=O)c1cc2ccccc2cc1O , report its growth.
4.34% (active)

Look up growth: CC(=O)Oc1ccc(OC(C)=O)c2ccccc12
75.7% (inactive)

Recorded growth of COC(=O)C(Cc1ccccc1)NC(=O)c1ccc(NC(=O)c2[nH]c(C)c(Cl)c2Cl)c(OC(C)C)c1 (stereo not drawn) , please.
40.3% (inactive)

Please look up its growth: CN1CCN(c2ccc(NC(=O)c3cncnc3Nc3ccc(OCc4cccc(F)c4)c(Cl)c3)cc2)CC1
89.3% (inactive)

Recorded growth of COc1ccc(-c2nc(-c3cn(C)c4ncccc34)cs2)cc1 , please.
8.63% [100 µM] (active)

Which growth value is on record for COc1ccc2c(c1)c(/C(O)=C1\COC(=O)C1=O)cn2Cc1ccc(F)cc1 ?
103% (inactive)

Reported growth, molecule COc1ccc(/C=C(/C(=O)n2cnnn2)c2cc(OC)c(OC)c(OC)c2)cc1 : ____
48% (inactive)

Which growth value is on record for COc1ccc(Cn2cc(C(=O)N=Nc3c(O)[nH]c4c(C)cccc34)nn2)cc1 ?
38.2% (inactive)

Name the reported growth value associated with the molecule CCN1C(=O)N(CC)C2C1NC(=S)N2/N=C/c1ccc(OC)cc1 (stereo not drawn)
64% (inactive)

Field request: growth | item: O=S(=O)(NCCNc1nccc(-c2c(-c3ccc(F)c(O)c3)nc3sccn23)n1)c1ccc(F)cc1
19.7% (inactive)

Which value of growth has been reported for CCCn1nc(C(=O)N(C)Cc2ccccc2)c2c1CCC(N1CCc3ccccc31)C2 (stereo not drawn) in the records?
96% (inactive)

// lookup growth for CCCCCCCCCCCCCOC(=O)c1c(C)[nH]c(/C=C2\N=C(c3ccc[nH]3)C=C2OC)c1C
8.11% (active)

Query: growth; subject: O=C(O)c1cn(C2CC2)c2cc(N3CCN(C(=O)Nc4nc(-c5ccc(Br)cc5)cs4)CC3)c(F)cc2c1=O
17% (inactive)
